Header: IC50 / Ubiquitin carboxyl-terminal hydrolase 7 (Homo sapiens) / multiple publications

>>> measured_value("Cc1cc(Cl)cc(-c2ncnc3cc(CN4C(=O)CN(C)C4=O)sc23)c1CN1[C@@H](C)CNC[C@@H]1C")
"< 0.01 µM"
>>> measured_value("Cc1cc(Cl)cc(-c2ncnc3cc(CN4C(=O)CCN(C)C4=O)sc23)c1C[C@H]1CNCC(C)(C)O1")
"0.01 to 0.1 µM"
>>> measured_value("CN1CCN(C(=O)c2ccc(-c3n[nH]c4c3CN(C#N)C4)cc2)CC1")
"< 10 µM"
>>> measured_value("Cc1cc(Cl)cc(-c2ccnc3cc(CN4C(=O)CCCC4=O)sc23)c1CC1CNCCO1 (centres unmarked)")
"< 0.01 µM"
>>> measured_value("O=c1ccn(CC(F)(F)F)c(=O)n1Cc1cc2ncnc(-c3cc(Cl)cc4c3N([C@H]3CCNC3)CCC4)c2s1")
"< 0.01 µM"
>>> measured_value("O=C1CCC(=O)N1Cc1cc2nccc(-c3cc(Cl)cc4c3N(C3CNC5(CC(F)C5)C3)CCC4)c2s1 (centres unmarked)")
"< 0.01 µM"
>>> measured_value("C[C@H](CC(=O)N1CCC(O)(Cn2cnc3cc(NC(=O)CCN(C)C)ccc3c2=O)CC1)c1ccccc1")
"< 0.2 µM"
>>> measured_value("O=C([C@H]1Cc2cc(Cl)cc(-c3ccnc4ccsc34)c2O1)N1CCN2CCCC2C1 (some centres unmarked)")
"1 to 10 µM"

q: What reported IC50 corresponds to "CN1CCc2noc([C@H]3Cc4cc(Cl)cc(-c5ccnc6cc(CO)sc56)c4O3)c2C1" on Ubiquitin carboxyl-terminal hydrolase 7 (Homo sapiens)?
a: < 1 µM

q: What reported IC50 corresponds to "C[C@]1(CO)C[C@H](N2CCCc3cc(Cl)cc(-c4ccnc5c(F)c(CN6C(=O)CCC6=O)sc45)c32)CN1" on Ubiquitin carboxyl-terminal hydrolase 7 (Homo sapiens)?
a: < 0.01 µM

###

Header: IC50 / Ubiquitin carboxyl-terminal hydrolase 7 (Homo sapiens) / multiple publications

>>> measured_value("Cc1cc(Cl)cc(-c2ccnc3cc(CN4C(=O)C5C(C4=O)C5(C)C)sc23)c1CN1CCNCC1 (centres unmarked)")
"10 to 100 nM"
>>> measured_value("Cc1cc(Cl)cc(-c2ncnc3cc(CN4C(=O)CCN(CC(F)F)C4=O)sc23)c1C[C@@H]1CNCC(C)(C)O1")
"< 10 nM"
>>> measured_value("Cc1cc(Cl)cc(-c2ncnc3cc(CN4C(=O)CSC4=O)sc23)c1CN1C[C@@H](C)NC[C@@H]1C")
"< 10 nM"

q: What reported IC50 corresponds to "Cc1cc2c(c(-c3ccnc4cc(CN5C(=O)CCC5=O)sc34)c1)N(C1CNC1)CCC2" on Ubiquitin carboxyl-terminal hydrolase 7 (Homo sapiens)?
a: 10 to 100 nM

q: What reported IC50 corresponds to CC1(C)CNCC(Cc2c(Cl)cc(Cl)cc2-c2ncnc3cc(CN4C(=O)CCC4=O)sc23)O1 (centres unmarked) on Ubiquitin carboxyl-terminal hydrolase 7 (Homo sapiens)?
a: < 10 nM

q: What reported IC50 corresponds to O=C(C1Cc2cc(Cl)cc(-c3ccnc4[nH]ccc34)c2O1)N1CCCC(C2CNC2)C1 (centres unmarked) on Ubiquitin carboxyl-terminal hydrolase 7 (Homo sapiens)?
a: 10000 to 30000 nM

q: What reported IC50 corresponds to C=CCON=C1c2ccccc2-c2nn3nnnc3nc21 (mixture of isomers) on Ubiquitin carboxyl-terminal hydrolase 7 (Homo sapiens)?
a: 305 nM

q: What reported IC50 corresponds to O=C1C2CC2C(=O)N1Cc1cc2nccc(-c3cc(Cl)cc4c3N(C3CNC3)CCC4)c2s1 (centres unmarked) on Ubiquitin carboxyl-terminal hydrolase 7 (Homo sapiens)?
a: 10 to 100 nM

q: What reported IC50 corresponds to O=C(C1Cc2cc(Cl)cc(-c3ccnc4[nH]c(C5CC5)cc34)c2O1)N1CCNCC1 (centres unmarked) on Ubiquitin carboxyl-terminal hydrolase 7 (Homo sapiens)?
a: 10000 to 30000 nM

q: What reported IC50 corresponds to Cc1cc(Cl)cc(-c2ncnc3cc(CN4C(=O)C5CC5C4=O)sc23)c1C[C@@H]1CNC[C@@H](C)O1 (some centres unmarked) on Ubiquitin carboxyl-terminal hydrolase 7 (Homo sapiens)?
a: < 10 nM

q: What reported IC50 corresponds to "Cc1ccc(F)c(-c2nn(C)c3c2CN(C#N)C3)c1" on Ubiquitin carboxyl-terminal hydrolase 7 (Homo sapiens)?
a: < 10000 nM

q: What reported IC50 corresponds to Cc1cc(Cl)cc(-c2ncnc3cc(CN4C(=O)C5CC5C4=O)sc23)c1CN1CCNC[C@@H]1C (some centres unmarked) on Ubiquitin carboxyl-terminal hydrolase 7 (Homo sapiens)?
a: < 10 nM

q: What reported IC50 corresponds to Cc1cc(Cl)cc(-c2ncnc3cc(CN4C(=O)C5CC5C4=O)sc23)c1CC1CNCCCO1 (centres unmarked) on Ubiquitin carboxyl-terminal hydrolase 7 (Homo sapiens)?
a: < 10 nM

q: What reported IC50 corresponds to CC1(C)C2C(=O)N(Cc3cc4nccc(-c5cc(Cl)cc6c5N([C@@H]5CNC7(CCC7)C5)CCC6)c4s3)C(=O)C21 (some centres unmarked) on Ubiquitin carboxyl-terminal hydrolase 7 (Homo sapiens)?
a: 10 to 100 nM
